target: Human EGF receptor tyrosine kinase (Homo sapiens, UniProt P00533); construct: Human EGF receptor tyrosine kinase was isolated from A431 epidermoid carcinoma cells; endogenous in cells; host or cells: A431 epidermoid carcinoma cells; assay: EGF receptor tyrosine kinase enzyme assay (substrate peptide phosphorylation); type: biochemical; conditions: read-out: EGF-FL % Inhibition at 50 µM
Sequence (P00533 25-1210): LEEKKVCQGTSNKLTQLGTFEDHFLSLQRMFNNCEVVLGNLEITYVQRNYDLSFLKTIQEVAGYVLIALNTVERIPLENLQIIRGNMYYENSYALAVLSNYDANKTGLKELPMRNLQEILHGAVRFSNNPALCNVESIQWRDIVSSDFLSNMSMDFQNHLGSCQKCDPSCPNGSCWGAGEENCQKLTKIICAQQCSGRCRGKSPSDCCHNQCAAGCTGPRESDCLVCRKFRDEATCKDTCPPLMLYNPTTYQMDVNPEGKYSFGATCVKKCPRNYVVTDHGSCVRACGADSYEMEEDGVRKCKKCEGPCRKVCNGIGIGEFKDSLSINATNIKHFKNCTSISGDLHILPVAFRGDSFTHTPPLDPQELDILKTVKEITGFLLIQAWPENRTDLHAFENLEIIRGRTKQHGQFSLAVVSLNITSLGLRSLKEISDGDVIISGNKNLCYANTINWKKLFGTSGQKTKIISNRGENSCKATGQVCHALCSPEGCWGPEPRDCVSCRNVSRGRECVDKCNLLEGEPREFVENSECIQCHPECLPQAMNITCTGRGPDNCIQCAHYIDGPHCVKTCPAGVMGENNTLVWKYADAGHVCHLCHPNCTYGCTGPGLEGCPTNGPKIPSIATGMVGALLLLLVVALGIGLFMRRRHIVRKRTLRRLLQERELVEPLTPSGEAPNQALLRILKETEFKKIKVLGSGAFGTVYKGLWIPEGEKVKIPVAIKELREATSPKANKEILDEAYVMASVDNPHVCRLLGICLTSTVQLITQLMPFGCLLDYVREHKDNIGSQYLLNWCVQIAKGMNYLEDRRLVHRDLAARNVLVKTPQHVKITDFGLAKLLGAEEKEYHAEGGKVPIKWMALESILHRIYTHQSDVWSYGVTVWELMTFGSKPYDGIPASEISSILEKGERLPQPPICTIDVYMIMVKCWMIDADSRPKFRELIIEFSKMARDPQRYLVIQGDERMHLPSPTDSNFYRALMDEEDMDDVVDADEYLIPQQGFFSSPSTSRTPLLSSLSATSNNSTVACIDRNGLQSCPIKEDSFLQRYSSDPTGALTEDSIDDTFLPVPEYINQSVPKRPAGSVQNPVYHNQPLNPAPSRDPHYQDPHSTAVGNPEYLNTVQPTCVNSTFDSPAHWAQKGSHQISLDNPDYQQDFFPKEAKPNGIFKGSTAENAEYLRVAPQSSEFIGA
Class true: inhibition at 50 µM at least 60%. Class false: inhibition at 50 µM below 60%.

These solved cases illustrate the format of a correct answer.
COC(=O)c1ccc(Cn2c(=O)c(-c3c(Cl)cccc3Cl)cc3cnc(N)nc32)cc1; true
Cn1c(=O)c(-c2c(Cl)cccc2Cl)cc2cnc(NCCc3ccccn3)nc21; false
Cn1c(=O)c(-c2c(Cl)cccc2Cl)cc2cnc(NCCCN3CCOCC3)nc21; true

Please indicate if the recorded inhibition at 50 µM for CCCCn1c(=O)c(-c2c(Cl)cccc2Cl)cc2cnc(N)nc21 meets or exceeds 60%.
true

Please indicate if the recorded inhibition at 50 µM for Cc1cccc(C)c1-c1cc2cnc(N)nc2n(C)c1=O meets or exceeds 60%.
true

Please indicate if the recorded inhibition at 50 µM for Nc1ncc2cc(-c3c(Cl)cccc3Cl)c(=O)n(Cc3ccccc3)c2n1 meets or exceeds 60%.
true
